Target: SIRT2 (Homo sapiens, UniProt Q8IXJ6)
Construct: recombinant active enzymes SIRT1, SIRT2, and the catalytically active fragment of SIRT3
Sequence (Q8IXJ6 whole entry, the tested form may be a part): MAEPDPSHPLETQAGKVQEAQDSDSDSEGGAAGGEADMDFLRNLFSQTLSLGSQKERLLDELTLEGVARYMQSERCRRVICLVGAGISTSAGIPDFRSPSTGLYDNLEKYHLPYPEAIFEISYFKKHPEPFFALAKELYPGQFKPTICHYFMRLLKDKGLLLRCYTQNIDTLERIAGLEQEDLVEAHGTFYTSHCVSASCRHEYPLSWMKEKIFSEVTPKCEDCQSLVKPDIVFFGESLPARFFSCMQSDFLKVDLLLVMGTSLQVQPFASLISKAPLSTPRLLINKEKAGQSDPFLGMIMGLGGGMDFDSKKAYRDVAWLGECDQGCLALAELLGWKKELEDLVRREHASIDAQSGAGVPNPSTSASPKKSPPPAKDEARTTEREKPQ
Assay: Fluor-de-Lys biochemical sirtuin deacetylation assay, SIRT2
Conditions: 10 μM
Where a name gives a salt, the structure may show the parent alone.
measured_attribute: inhibition at 10 µM (%)

Known results for compounds:
compound | inhibition at 10 µM, %
CC(=O)c1ccc(CN(Cc2cncc(C(=O)N(C)c3ccc(C#N)cc3)c2)C2CC2)cc1 [Compound 225s, hydrochloride] | 3
Cc1cc(F)ccc1N(C)C(=O)c1cccc(S(=O)(=O)N(C)c2ccc(Br)cc2)c1 [Compound 203m] | 28
C=CCOc1cc(OCc2ccc(C#N)cc2)cc(C(=O)Nc2ccc(C#N)cc2)c1 [Compound 216v] | 11

(P) C[C@@H](N)c1ccc(N(C)S(=O)(=O)c2cccc(C(=O)Nc3ccc(C#N)cc3)c2)cc1 [Compound 203At, hydrochloride]
(Q) CC(=O)c1ccc(CN(Cc2cccc(C(=O)Nc3ccc(C#N)cc3)c2)C2CC2)cc1 [Compound 225x, hydrochloride]
query: Given P and Q , report the one with the higher recorded inhibition at 10 µM. When you have decided, please share the label of that item.
result: P
(P: 38%, Q: 24%)

(A) CCCN(CCC)S(=O)(=O)c1cccc(C(=O)Nc2cccc([N+](=O)[O-])c2)c1 [Compound 203h]
(B) CN(c1ccc(Cl)cc1)S(=O)(=O)c1cccc(NC(=O)Nc2ccc(Cl)cc2)c1 [Compound 233a]
(C) CC(=O)c1ccc(C(C)Oc2cncc(C(=O)Nc3ccc(C#N)cc3)c2)cc1 (centres unmarked) [Compound 216Ab]
(D) CN(C(=O)c1cccc(S(=O)(=O)N(C)c2ccc([S+](C)[O-])cc2)c1)c1ccc(Cl)cc1F (centres unmarked) [Compound 203Ag]
(E) CN(c1ccc(Br)cc1)S(=O)(=O)c1cccc(C(=O)Nc2ccc(Br)cc2F)c1 [Compound 203r]
query: Ascending by inhibition at 10 µM, please. Quick reminder: the answer is the labels in the order asked.
result: B, D, E, A, C
(B: 0%, D: 14%, E: 30%, A: 50%, C: 84%)

(A) CN(C(=O)c1cccc(S(=O)(=O)N(C)c2ccc([S+](C)[O-])cc2)c1)c1ccc(C#N)cc1F (centres unmarked) [Compound 203Al]
(B) N#Cc1ccc(NC(=O)c2cccc(OCc3ccc(F)cc3)c2)cc1 [Compound 216g]
query: Given A and B , report the one with the higher recorded inhibition at 10 µM. When you have decided, please share the label of that item.
result: B
(B: 64%, A: 0%)

---

Target: SIRT2 (Homo sapiens)
Construct: recombinant active enzymes SIRT1, SIRT2, and the catalytically active fragment of SIRT3
Test: Fluor-de-Lys biochemical sirtuin deacetylation assay, SIRT2
Conditions: 10 μM
Structures can show the parent of a compound that is named as a salt.
measured_attribute: inhibition at 10 µM (%)

Known results for compounds:
compound | system | inhibition at 10 µM / %
N#Cc1ccc(NC(=O)c2cccc(S(=O)(=O)N(c3ccc(Cl)cc3)C3CC3)c2)cc1 [Compound 203Av] | SIRT2 (Homo sapiens) | 51
N#Cc1ccc(NC(=O)c2cccc3c2CCN(Cc2ccc(F)c(F)c2)C3)cc1 [Compound 225m, hydrochloride] | SIRT2 (Homo sapiens) | 65
Cc1cc(Br)ccc1NC(=O)c1cccc(S(=O)(=O)N2CCCCCC2)c1 [Compound 203b] | SIRT2 (Homo sapiens) | 0
N#Cc1ccc(COc2cccc(C(=O)Nc3ccc(C#N)cc3)c2)cc1 [Compound 216q] | SIRT2 (Homo sapiens) | 56
C[C@@H](Oc1cncc(C(=O)Nc2ccc(C#N)cc2)c1)c1ccc(F)cc1 [Compound 216r] | SIRT2 (Homo sapiens) | 69

(1) CC(=O)c1ccc(NC(=O)c2cccc(O[C@H](C)c3ccc(C(C)=O)cc3)c2)cc1 [Compound 216As]
(2) CC(C)(Oc1cccc(C(=O)Nc2ccc(C#N)cc2)c1)c1ccc(F)cc1 [Compound 216p]
query: Given 1 and 2 , report the one with the higher recorded inhibition at 10 µM. When you have decided, please share the label of that item.
result: 1

Reference source for all entries: patent US9890117B2
